- test_target: T1, biotinylated goat anti-human kappa light chain
- T1 construct: positive control of the ELISA
- method_description: ELISA, positive control; also: test concentration or dose not given here
attribute_measured: optical density (OD)
// return numeric value only (unit: OD, not printed)

See these solved cases before continuing.
binder	attribute_measured	test_result
365_G05 (antibody, V domains shown, Group III) VH: EVQLLESGGGLVQPGGSLRLSCAASGFTFSSYGMNWVRQAPGKGLEWVSGINYNGGYKGYADSVKGRFTISRDNSKNTLYLQMNSLRAEDTAVYYCARGANWHDTALDYWGQGTLVTVSS VL: DIQMTQSPSSLSASVGDRVTITCRASQSILSYLNWYQQKPGKAPKLVIYAATSLASGVPSRFSGSGSGTDFTLTISSLQPEDFATYYCQQSYENPLTFGGGTKVEIK	optical density	3.35
367_H08 (antibody, V domains shown, Group II) VH: EVQLLESGGGLVQPGGSLRLSCAASGFTFDSYGMNWVRQAPGKGLEWVSSINYNGGYTSYADSVKGRFTISRDNSKNTLYLQMNSLRAEDTAVYYCARAATWHDTHLDYWGQGTLVTVSS VL: DIQMTQSPSSLSASVGDRVTITCRASQSILTYVNWYQQKPGKAPKLLIYAATSRHSGVPSRFSGSGSGTDFTLTISSLQPEDFATYYCQQSYNLPLTFGGGTKVEIK	optical density	3.54
365_C05 (antibody, V domains shown, Group III) VH: EVQLLESGGGLVQPGGSLRLSCAASGFTFSDYSMNWVRQAPGKGLEWVSGINYNGGYKGYADSVKGRFTISRDNSKNTLYLQMNSLRAEDTAVYYCARGANWHDTHLDYWGQGTLVTVSS VL: DIQMTQSPSSLSASVGDRVTITCRASQSILTYLNWYQQKPGKAPKLLIYAATSRHSGVPSRFSGSGSGTDFTLTISSLQPEDFATYYCQQSYNSPLTFGGGTKVEIK	optical density	3.53

Query :: May I ask what optical density has been recorded for 368_C07 (antibody, V domains shown, Group II) VH: EVQLLESGGGLVQPGGSLRLSCAASGFTFSSYGMHWVRQAPGKGLEWVAGINYNSGYTSYADSVKGRFTISRDNSKNTLYLQMNSLRAEDTAVYYCARAATWHDTHLDYWGQGTLVTVSS VL: DIQMTQSPSSLSASVGDRVTITCRASQSIVSYVNWYQQKPGKAPKLVIYAATSRASGVPSRFSGSGSGTDFTLTISSLQPEDFATYYCQQSYENPLTFGGGTKVEIK ?
Result :: 3.31

Query :: Request the reported optical density associated with 366_B09 (antibody, V domains shown, Group II) VH: EVQLLESGGGLVQPGGSLRLSCAASGFTFSDYGMHWVRQAPGKGLEWVSSINYNSGYKSYADSVKGRFTISRDNSKNTLYLQMNSLRAEDTAVYYCARAATWHDTHLDYWGQGTLVTVSS VL: DIQMTQSPSSLSASVGDRVTITCRASQSILTYLNWYQQKPGKAPKLVIYAATSRHSGVPSRFSGSGSGTDFTLTISSLQPEDFATYYCQQSYDSPLTFGGGTKVEIK
Result :: 3.39

Query :: Quick one: optical density of 366_A08 (antibody, V domains shown, Group III) VH: EVQLLESGGGLVQPGGSLRLSCAASGFTFDDYSMNWVRQAPGKGLEWVSGINYNSGYKGYADSVKGRFTISRDNSKNTLYLQMNSLRAEDTAVYYCARGANWHDTHLDYWGQGTLVTVSS VL: DIQMTQSPSSLSASVGDRVTITCRASQSIVSYVNWYQQKPGKAPKLVIYAATSRASGVPSRFSGSGSGTDFTLTISSLQPEDFATYYCQQSYNSPLTFGGGTKVEIK ?
Result :: 3.23
